pIC50 for assorted molecules
target: Squalene synthase (Candida albicans); assay: Inhibition of Candida albicans squalene synthase(SQS)
pIC50: −log10 of the molar value.

{"Smiles Repr": "C=C(CC[C@]12O[C@H](C(=O)O)[C@@](O)(C(=O)O)[C@](C(=O)O)(O1)[C@H](OC(=O)CCCCCCC)[C@H]2OC(=O)CCCCCCC)[C@@H](OC(C)=O)[C@H](C)Cc1ccccc1", "Measured On": "Squalene synthase (Candida albicans)", "pIC50": "< 6.70"}
{"Smiles Repr": "C=C(CC[C@]12O[C@H](C(=O)O)[C@@](O)(C(=O)O)[C@](C(=O)O)(O1)[C@H](O)[C@H]2OC(C)=O)[C@@H](OC(C)=O)[C@H](C)Cc1ccccc1", "Measured On": "Squalene synthase (Candida albicans)", "pIC50": "< 6.70"}
{"Smiles Repr": "C=C(CC[C@]12O[C@H](C(=O)O)[C@@](O)(C(=O)O)[C@](C(=O)O)(O1)[C@H](O)[C@H]2OC(=O)CCCCCCC)[C@@H](OC(C)=O)[C@H](C)Cc1ccccc1", "Measured On": "Squalene synthase (Candida albicans)", "pIC50": "< 6.70"}
